System: johnsongrass
assay comment: Test F preemergence
Assay type: in vivo, Sorghum halepense
experimental conditions: preemergence; 16 g ai/ha; scale 0 to 100, 100 is complete control

compound	Plant response rating, Johnsongrass
CCOc1cc(C(=O)NCC(F)(F)F)nn1Cc1ccnc(C(F)(F)F)c1 [Compound 104]	35
CCNC(=O)c1cc(CC)n(Cc2ccnc(C(F)(F)F)c2)n1 [Compound 196]	0
CCc1cc(C(=O)NC2CC2)nn1Cc1ccnc(OCC(F)(F)F)c1 [Compound 200]	0
CCCc1cc(C(=O)NCC(F)(F)F)nn1Cc1ccnc(C(F)(F)F)c1 [Compound 105]	25

====

System: galium
assay comment: Test C preemergence
Format: in vivo, Galium aparine
experimental conditions: preemergence, 62 g ai/ha; scale 0 to 100 (0 no effect, 100 complete control), 13 to 15 days

line notation	study target	Galium plant response rating
CCONC(=O)c1cc(OCC)n(Cc2ccnc(C(F)(F)F)c2)n1	galium	85
Cc1cc(C(=O)NC(C)C)nn1Cc1ccnc(C(F)(F)F)c1	galium	100
CCc1cc(C(=O)NC(C)C)nn1Cc1ccnc(C(F)(F)F)c1	galium	80
CCCNC(=O)c1cc(CCCl)n(Cc2ccnc(C(F)(F)F)c2)n1	galium	95
CCCNC(=O)c1cc(CC)n(Cc2ccnc(OC(F)F)c2)n1	galium	100

Recorded values, source patent US20150105252A1.
